The origin of these recorded values is PubChem BioAssay (NCI).

System: EKVX NSCLC
Test: NCI tumour cell line growth inhibition, 48 h
Measured attribute: TGI (µM)
Number in µM, nothing else.

Worked set:
[
  {
    "Molecule": "C=C(CC[C@@H](C)[C@H]1CC[C@@]2(C)C3=C(CC[C@]12C)[C@@]1(C)CC[C@H](O)[C@@H](C)C1CC3)C(C)C (stereo not given in full)",
    "Value measured": 2.42
  },
  {
    "Molecule": "Cn1c2ccccc2c2c3[nH]c(=O)[nH]c(=O)c3c3c4ccccc4n(C)c3c21",
    "Value measured": 47.2
  },
  {
    "Molecule": "N#Cc1c(-c2ccccc2)cc(Nc2cccc(C(F)(F)F)c2)n2c1nc1ccccc12",
    "Value measured": 10
  }
]

Here is the next item to consider.
Query string: Form field: TGI recorded for CS(=O)(=O)c1cc(=O)c2ccccc2s1 with EKVX NSCLC (enter value)
Result string: 21.4
